Some molecules, each annotated with its measured viability, T/C.
- Tested on: NCI-H1876 complex spheroid growth, % test/control
- PROCEDURE_SUMMARY: Anticancer human tumor NCI-H1876 cell line growth inhibition [Asc];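 also: compound exposure lasted 7 days starting three days after seeding; 100% = DMSO vehicle control wells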
- MEASUREMENT_SETUP: second compound 1 µM; first compound 0.0316 µM; stronger effect = lower value
The figure you give is taken to be in %; do not add the unit.

The following molecules have reported results that may help.
- MOLECULE: "Cn1ncnc1[C@H]1c2n[nH]c(=O)c3cc(F)cc(c23)N[C@@H]1c1ccc(F)cc1 + CNC(C)C(=O)NC1CN(S(=O)(=O)c2cccc(S(=O)(=O)N3CCC4CCC(C(=O)NC(c5ccccc5)c5ccccc5)N4C(=O)C(NC(=O)C(C)NC)C3)c2)CCC2CCC(C(=O)NC(c3ccccc3)c3ccccc3)N2C1=O"
  viability, T/C / %: 103
- MOLECULE: "C=CC(=O)N1CCN(c2nc(=O)n(-c3c(C)ccnc3C(C)C)c3nc(-c4c(O)cccc4F)c(F)cc23)C(C)C1 (configuration not stated) + CNC(C)C(=O)NC1CN(S(=O)(=O)c2cccc(S(=O)(=O)N3CCC4CCC(C(=O)NC(c5ccccc5)c5ccccc5)N4C(=O)C(NC(=O)C(C)NC)C3)c2)CCC2CCC(C(=O)NC(c3ccccc3)c3ccccc3)N2C1=O"
  viability, T/C / %: 111
- MOLECULE: "COc1c(OCCCN2CCOCC2)ccc2c3n(c(=NC(=O)c4cnc(N)nc4)nc12)CCN3 + Cc1c(S(C)(=O)=O)c(-c2cc(F)cc(N3CCN(c4ccc(NS(=O)(=O)c5ccc(NC(CCN6CCC(C(=O)OCCCP(=O)(O)O)CC6)CSc6ccccc6)c(S(=O)(=O)C(F)(F)F)c5)cc4)CC3)c2)c(-c2ccc(Cl)cc2)n1C(C)C"
  viability, T/C / %: 82.5
- MOLECULE: "O=C(c1ccc(F)c(F)c1Nc1ccc(I)cc1F)N1CC(O)([C@@H]2CCCCN2)C1 + CNC(C)C(=O)NC1CN(S(=O)(=O)c2cccc(S(=O)(=O)N3CCC4CCC(C(=O)NC(c5ccccc5)c5ccccc5)N4C(=O)C(NC(=O)C(C)NC)C3)c2)CCC2CCC(C(=O)NC(c3ccccc3)c3ccccc3)N2C1=O"
  viability, T/C / %: 99.2
- MOLECULE: "CNC(C)C(=O)NC1CN(S(=O)(=O)c2cccc(S(=O)(=O)N3CCC4CCC(C(=O)NC(c5ccccc5)c5ccccc5)N4C(=O)C(NC(=O)C(C)NC)C3)c2)CCC2CCC(C(=O)NC(c3ccccc3)c3ccccc3)N2C1=O (configuration not stated) + Cc1c(S(C)(=O)=O)c(-c2cc(F)cc(N3CCN(c4ccc(NS(=O)(=O)c5ccc(NC(CCN6CCC(C(=O)OCCCP(=O)(O)O)CC6)CSc6ccccc6)c(S(=O)(=O)C(F)(F)F)c5)cc4)CC3)c2)c(-c2ccc(Cl)cc2)n1C(C)C"
  viability, T/C / %: 91.6

The reported viability, T/C of the molecule O=C(c1ccc(F)c(F)c1Nc1ccc(I)cc1F)N1CC(O)([C@@H]2CCCCN2)C1 + Cc1c(S(C)(=O)=O)c(-c2cc(F)cc(N3CCN(c4ccc(NS(=O)(=O)c5ccc(NC(CCN6CCC(C(=O)OCCCP(=O)(O)O)CC6)CSc6ccccc6)c(S(=O)(=O)C(F)(F)F)c5)cc4)CC3)c2)c(-c2ccc(Cl)cc2)n1C(C)C was 93.9

The reported viability, T/C of the molecule C=C(F)C(=O)N1CCN(c2nc(OCC3CCCN3C)nc3c2CCN(c2cccc4cccc(Cl)c24)C3)CC1CC#N (configuration not stated) + Cc1c(S(C)(=O)=O)c(-c2cc(F)cc(N3CCN(c4ccc(NS(=O)(=O)c5ccc(NC(CCN6CCC(C(=O)OCCCP(=O)(O)O)CC6)CSc6ccccc6)c(S(=O)(=O)C(F)(F)F)c5)cc4)CC3)c2)c(-c2ccc(Cl)cc2)n1C(C)C was 91.5
